# Target or test system: UniProt P13945
# Test name: Displacement of [125I]iodocyanopindolol from human adrenergic beta-3 receptor at 1 uM
Attribute measured: inhibition (%)

Solved cases (8 shown):
Need inhibition of OC(COc1ccc2c(c1)CCCN2Cc1ccccc1)CN1CCN(c2ccc(Cl)c(Cl)c2)CC1 (stereo unspecified) , thanks.
-7.18

Need inhibition of CC(Cc1ccc(O)cc1)N1CCOC(c2ccccc2)C1 (stereo unspecified) , thanks.
0.34

Need inhibition of COc1ccc(CCN(CC(O)COc2ccc3c(c2)CCCN3Cc2ccccc2)C(=O)OC(C)(C)C)cc1OC (stereo unspecified) , thanks.
37.8

Need inhibition of COc1ccc(CCNCC(O)COc2ccc3c(c2)CCCN3S(=O)(=O)c2ccccc2)cc1OC (stereo unspecified) , thanks.
26.5

Need inhibition of O=[N+]([O-])c1ccc(N2CCN(CC(O)COc3ccc4c(c3)CCCN4Cc3ccccc3)CC2)cc1 (stereo unspecified) , thanks.
6.08

Need inhibition of COc1ccc(CCNCC(O)COc2ccc3c(c2)CCCN3)cc1OC (stereo unspecified) , thanks.
33.1

Need inhibition of CC(C)NCC(O)COc1ccc2c(c1)CCCN2Cc1ccccc1 (stereo unspecified) , thanks.
59.7

Need inhibition of COc1ccccc1N1CCN(CC(O)COc2ccc3c(c2)CCCN3Cc2ccccc2)CC1 (stereo unspecified) , thanks.
12.2

[A] OC(COc1ccc2c(c1)CCCN2Cc1ccccc1)CN1CCN(c2ccccc2F)CC1 (stereo unspecified)
[B] OC(COc1ccc2c(c1)CCCN2Cc1ccccc1)CN1CCC(O)(c2ccccc2)CC1 (stereo unspecified)
Between the entries labeled A and B , whose measured inhibition is lower? Return value: the label identifying the chosen record.
A
(A: 5.5%, B: 46.4%)

[P] CCCNCC(O)COc1ccc2c(c1)CCCN2Cc1ccccc1 (stereo unspecified)
[Q] Cc1ccc(N2CCN(CC(O)COc3ccc4c(c3)CCCN4Cc3ccccc3)C(C)C2)cc1 (stereo unspecified)
Between the entries labeled P and Q , whose measured inhibition is lower? Return value: the label identifying the chosen record.
Q

[I] OC(COc1ccc2c(c1)CCCN2Cc1ccccc1)CN1CCCCC1 (stereo unspecified)
[II] COc1ccc(N2CCN(CCCOc3ccc4c(c3)CCCN4Cc3ccccc3)CC2)cc1
Between the entries labeled I and II , whose measured inhibition is lower? Return value: the label identifying the chosen record.
I
(I: 4.27%, II: 6.72%)

###

# Target or test system: Beta-3 adrenergic receptor (Homo sapiens)
# Sequence (P13945 whole entry, looked up): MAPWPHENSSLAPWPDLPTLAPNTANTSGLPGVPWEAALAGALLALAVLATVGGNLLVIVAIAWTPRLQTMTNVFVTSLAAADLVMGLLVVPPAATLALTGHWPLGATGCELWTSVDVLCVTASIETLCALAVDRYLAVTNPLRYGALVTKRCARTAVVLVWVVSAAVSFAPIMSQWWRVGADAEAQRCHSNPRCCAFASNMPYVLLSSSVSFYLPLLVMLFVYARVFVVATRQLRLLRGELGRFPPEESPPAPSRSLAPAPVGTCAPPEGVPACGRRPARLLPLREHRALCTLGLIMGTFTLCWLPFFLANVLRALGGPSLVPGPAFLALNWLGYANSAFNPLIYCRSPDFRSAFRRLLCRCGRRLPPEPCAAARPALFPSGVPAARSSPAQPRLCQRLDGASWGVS
# Test name: Displacement of [125I]iodocyanopindolol from human adrenergic beta-3 receptor at 1 uM
Attribute measured: inhibition (%)

Solved cases (6 shown):
Need inhibition of OC(COc1ccc2c(c1)CCCN2Cc1ccccc1)CN1CCC(Cc2ccccc2)CC1 (stereo not drawn) , thanks.
-2.05

Need inhibition of OC(COc1ccc2c(c1)CCCN2Cc1ccccc1)CN1CCN(c2ccccn2)CC1 (stereo not drawn) , thanks.
5.32

Need inhibition of COc1ccc(N2CCN(CC(O)COc3ccc4c(c3)CCCN4Cc3ccccc3)CC2)cc1 (stereo not drawn) , thanks.
45.1

Need inhibition of CCN(CC)CC(O)COc1ccc2c(c1)CCCN2Cc1ccccc1 (stereo not drawn) , thanks.
9.18

Need inhibition of OC(COc1ccc2c(c1)CCCN2Cc1ccccc1)CN1CCN(c2cccc(Cl)c2)CC1 (stereo not drawn) , thanks.
-2.34

Need inhibition of OC(CNCCc1ccc(Cl)cc1)COc1ccc2c(c1)CCCN2Cc1ccccc1 (stereo not drawn) , thanks.
55.8

[1] CC(Cc1ccc(OCC(=O)O)cc1)N1CCOC(c2ccccc2)C1 (stereo not drawn)
[2] CC(NCC(O)COc1ccc2c(c1)CCCN2Cc1ccccc1)c1ccccc1 (stereo not drawn)
Between the entries labeled 1 and 2 , whose measured inhibition is lower? Return value: the label identifying the chosen record.
1

[P] COc1ccc(CCN(CC(O)COc2ccc3c(c2)CCCN3)C(=O)OC(C)(C)C)cc1OC (stereo not drawn)
[Q] CCCNCCCOc1ccc2c(c1)CCCN2Cc1ccccc1
[R] COc1ccc(CNCC(O)COc2ccc3c(c2)CCCN3Cc2ccccc2)cc1 (stereo not drawn)
Please produce an ascending ranking of these molecules based on inhibition. Note for the reader: the ranking is given by listing the labels in the order requested.
Q, R, P
(Q: 5.62%, R: 9.26%, P: 23.2%)

[A] CC1CCN(CC(O)COc2ccc3c(c2)CCCN3Cc2ccccc2)CC1 (stereo not drawn)
[B] OC(COc1ccc2c(c1)CCCN2Cc1ccccc1)CN1CCN(c2ccccc2)CC1 (stereo not drawn)
Which shows the larger inhibition value: A or B ? Return value: the label identifying the chosen record.
B
(B: 45.9%, A: -1.79%)

Origin of measurements: ChEMBL document CHEMBL1140856
